Assay: UPLC/ESI-tqMS time profile of 2,6-DCQ and its degradation products in simulated seawater (pH 8.2, darkness); OH-DCQ formation
Conditions: 2,6-DCQ degradation, pH 8.2, darkness; 2.5 h
Protocol: A Waters UPLC system coupled with ESI-tqMS was used to characterize the degradation products of 2,6-DCQ. The UPLC separation was performed using an HSS T3 column (100 × 2.1 mm, 1.8 μm particle size, Waters) with a column temperature of 35 °C. […] The second aliquot was subjected to analysis of total organic halogen to quantify the collected OH-DCQ. […] The chloride ion concentration was determined using an ICS-3000 ion chromatography system (Dionex). […]
Each entry below lists one item and its recorded Peak area value.
outcome.measure: Peak area

1) O=C1C=C(Cl)C(=O)C(OC2=C(Cl)C(=O)C(Cl)=CC2=O)=C1 :: 3689
2) O=C1C=C(Cl)C(=O)C=C1O [SIR 157, 3-hydroxyl-6-monochloro-1,4-benzoquinone] :: 2128
3) O=C1C=C(Cl)C(=O)C(Cl)=C1O [OH-DCQ, 3-hydroxyl-2,6-dichloro-1,4-benzoquinone] :: 22505
4) O=C1C=C(Cl)C(=O)C(Cl)=C1 :: 17152.8

* * *

Assay: Degradation in seawater with simulated solar irradiation
Settings: pretreated seawater under simulated solar irradiation, pH 8.2
Overview of recorded half-life at 10 mg L−1 for various compounds
outcome.measure: half-life at 10 mg L−1 (min)

1. Oc1cc(I)c(O)cc1I [2,5-DIHQ, 2,5-diiodohydroquinone] :: 9.6
2. Oc1cc(Br)c(O)cc1Br [2,5-DBHQ, 2,5-dibromohydroquinone] :: 9.6
3. Cc1cc(O)cc(C)c1Cl [PCMX, para-chloro-meta-xylenol, reference compound] :: 15400

* * *

Experiment: Acute oral toxicity, Hodge and Sterner toxicity scale
Details: in vivo, rat, inferred from LD10 of ref 49
outcome.measure: LD50

1. O=C1C=C(Cl)C(=O)C(Cl)=C1 :: ≥ 1000 mg/kg

* * *

Test: Degradation in seawater in darkness (pH 6.2, 7.2, 8.2)
Settings: pretreated seawater in darkness
outcome.measure: half-life at 10 mg L−1

1) Cc1cc(O)cc(C)c1Cl [PCMX, para-chloro-meta-xylenol, reference compound] :: ~240 days

* * *

Assay: Degradation in seawater with simulated solar irradiation
Conditions: buffer, pH 8.2
# if value of half-life at 10 mg L−1 reaches 40 h, tag fulfilled; if it stays below, tag not fulfilled

1) O=C1C=C(Cl)C(=O)C(Cl)=C1 :: not fulfilled
2) Oc1ccc(Cl)cc1Cl :: fulfilled
3) Oc1cc(Cl)c(O)cc1Cl [2,5-DCHQ, 2,5-dichlorohydroquinone] :: not fulfilled
4) Oc1ccc(Br)cc1Br :: not fulfilled
5) Oc1ccc(I)cc1I :: fulfilled

* * *

half-life at 10 mg L−1 reference
Assay: Degradation in seawater in darkness (pH 6.2, 7.2, 8.2)
Conditions: pretreated seawater in darkness, pH 8.2
outcome.measure: half-life at 10 mg L−1 (min)

1) Oc1cc(I)c(O)cc1I [2,5-DIHQ, 2,5-diiodohydroquinone] :: 9.6
2) Oc1cc(Br)c(O)cc1Br [2,5-DBHQ, 2,5-dibromohydroquinone] :: 9

* * *

# Peak area per entry
Experiment: UPLC/ESI-tqMS time profile of 2,6-DCQ and its degradation products in simulated seawater (pH 8.2, darkness); OH-DCQ formation
Settings: 2,6-DCQ degradation, pH 8.2, darkness; 8 h
outcome.measure: Peak area

1) O=C1C=C(Cl)C(=O)C(Cl)=C1 :: 866.6
2) O=C1C=C(Cl)C(=O)C(OC2=C(Cl)C(=O)C(Cl)=CC2=O)=C1 :: 3365
3) O=C1C=C(Cl)C(=O)C=C1O [SIR 157, 3-hydroxyl-6-monochloro-1,4-benzoquinone] :: 4489
4) O=C1C=C(Cl)C(=O)C(Cl)=C1O [OH-DCQ, 3-hydroxyl-2,6-dichloro-1,4-benzoquinone] :: 26518
